The values you see were collected from patent US9060997B2.

- Tested on: H1264 cells
- ASSAY_INFO: MTT cell proliferation assay, H1264
- Format: cell-based
- MEASUREMENT_PARAMETERS: Homo sapiens, 144 h; H1264, 6 days of treatment
MEASURED_QUANTITY: pIC50
Here pIC50 is given on a logarithmic scale as minus log10 of the concentration in mol/L.

Task item: What measured pIC50 goes with COc1cc(C(=O)O[C@@H]2Cc3c(O)cc(O)cc3O[C@@H]2c2ccc(O)c(O)c2)cc(OC)c1OC [TMECG] ?
Reply: 4.74

----------
- TARGET_DESC: rHDHFR (Homo sapiens, UniProt P00374)
- Construct: purchased Sigma
- Sequence (P00374 whole entry): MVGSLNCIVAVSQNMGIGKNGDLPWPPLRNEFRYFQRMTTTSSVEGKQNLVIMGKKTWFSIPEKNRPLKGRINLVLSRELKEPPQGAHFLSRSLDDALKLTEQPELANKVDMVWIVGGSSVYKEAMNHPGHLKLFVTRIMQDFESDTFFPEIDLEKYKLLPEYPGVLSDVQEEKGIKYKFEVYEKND
- ASSAY_INFO: rHDHFR binding: fluorescence titration and stopped-flow fluorescence
- MEASUREMENT_PARAMETERS: dissociation constant, free rHDHFR, fluorescence titration, pH 7.4, 25° C.
MEASURED_QUANTITY: Ki (nM)
Give just the numeric value; nM need not be written.

Task item: // lookup Ki for `COc1cc(C(=O)O[C@@H]2Cc3c(O)cc(O)cc3O[C@@H]2c2ccc(O)c(O)c2)cc(OC)c1OC`
Reply: 2100

Task item: Given `COc1cc(C(=O)O[C@H](Cc2c(O)cc(O)cc2O)C(=O)c2ccc(O)c(O)c2)cc(OC)c1OC` , state its recorded Ki.
Reply: 8.2

Task item: Any idea what Ki was measured for O=C(O[C@@H]1Cc2c(O)cc(O)cc2O[C@@H]1c1cc(O)c(O)c(O)c1)c1cc(O)c(O)c(O)c1 [EGCG, reference compound] ?
Reply: 920
